B1: SAM and SH3 domain-containing protein 1, residues 630 to 700; numbered along this chain, O94885 (parent)
chain: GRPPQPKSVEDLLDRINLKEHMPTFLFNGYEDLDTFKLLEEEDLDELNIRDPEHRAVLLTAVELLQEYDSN

Variants of: B1
Method Notes: abundance fitness (aPCA) (normalised: wild type 0, dead -1); higher = more abundant; growth selection in yeast, the domain comes from the species named
Applied Conditions: Homo sapiens
Assign class by abundance fitness: not lower than -0.7 means t; lower than -0.7 means f.

These recorded examples may help you get a feel for the data.
>>> category("H54V")
"t"
>>> category("V57D")
"t"
>>> category("D69R")
"t"
>>> category("G29F")
"f"

In: Hello, I need to know if E10T has measured abundance fitness not below -0.7. Thanks!
Out: t

In: Hello, I need to know if Y30R has measured abundance fitness not below -0.7. Thanks!
Out: f

In: Hello, I need to know if L58K has measured abundance fitness not below -0.7. Thanks!
Out: t

In: Hello, I need to know if K7I has measured abundance fitness not below -0.7. Thanks!
Out: t

In: Hello, I need to know if P52S has measured abundance fitness not below -0.7. Thanks!
Out: t

In: Hello, I need to know if H54S has measured abundance fitness not below -0.7. Thanks!
Out: t

In: Hello, I need to know if Y68L has measured abundance fitness not below -0.7. Thanks!
Out: t

In: Hello, I need to know if L38A has measured abundance fitness not below -0.7. Thanks!
Out: t

In: Hello, I need to know if S8M has measured abundance fitness not below -0.7. Thanks!
Out: f
